Assign binding response (% of control) to each entry below.
biological target: Mitogen-activated protein kinase kinase kinase 3 (Homo sapiens) (UniProt Q99759); experiment: blockers of MEK5-MEKK3 PB1 association – biochemical, bead multiplex flow cytometry, single concentration, wildtype, confirmation (AID 1894); conditions: Alexa488-MEK5 binding to MEKK3, at 10 µM, active compounds read low;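 further: 100% = DMSO only wells and 0% = binding blocked by excess unlabeled MEK5; lower values mean stronger disruption of MEK5 binding to MEKK3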
Sequence (Q99759 whole entry, looked up): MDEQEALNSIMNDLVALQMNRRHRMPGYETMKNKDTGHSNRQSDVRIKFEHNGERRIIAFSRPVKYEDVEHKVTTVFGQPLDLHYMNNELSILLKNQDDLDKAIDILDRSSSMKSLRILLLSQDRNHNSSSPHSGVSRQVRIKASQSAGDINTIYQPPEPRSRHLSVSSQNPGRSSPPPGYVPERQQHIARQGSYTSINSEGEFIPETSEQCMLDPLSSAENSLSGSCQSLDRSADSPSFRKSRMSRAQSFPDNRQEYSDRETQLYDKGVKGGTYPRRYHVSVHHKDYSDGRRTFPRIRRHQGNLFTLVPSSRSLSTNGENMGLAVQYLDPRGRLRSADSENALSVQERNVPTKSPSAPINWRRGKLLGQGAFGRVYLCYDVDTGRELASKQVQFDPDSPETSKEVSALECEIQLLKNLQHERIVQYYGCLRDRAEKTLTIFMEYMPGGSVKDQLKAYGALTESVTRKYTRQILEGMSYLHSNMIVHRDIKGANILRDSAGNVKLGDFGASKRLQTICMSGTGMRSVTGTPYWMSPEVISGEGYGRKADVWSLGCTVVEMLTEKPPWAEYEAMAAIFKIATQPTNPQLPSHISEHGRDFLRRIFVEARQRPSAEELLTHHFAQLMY
Screen size: about 5,900 compounds; about 100 (1.7%) were called active. The full list was thinned out, with actives kept by preference.
Give the value in % but do not write % after it.

Exam item: binding response (% of control) of `CCNC(=O)CSc1nc(-c2ccccc2)cs1` on Mitogen-activated protein kinase kinase kinase 3 (Homo sapiens) (UniProt Q99759)?
Marked response: 104

Exam item: # value lookup — system Mitogen-activated protein kinase kinase kinase 3 (Homo sapiens) (UniProt Q99759), readout binding response (% of control), item `COc1cc(-c2nnc(Cn3cc(C(F)(F)F)ccc3=O)o2)cc(OC)c1OC`
Marked response: 102

Exam item: Please provide the recorded binding response (% of control) for C=C(C)C1CC=C(C)/C(=N\NC(=O)CNc2ccccc2OC)C1 (stereo not drawn) , tested on Mitogen-activated protein kinase kinase kinase 3 (Homo sapiens) (UniProt Q99759).
Marked response: 109

Exam item: What value of binding response (% of control) on Mitogen-activated protein kinase kinase kinase 3 (Homo sapiens) (UniProt Q99759) does `CCN(CC)CCOCCOc1ccc(Cl)c2ccccc12` have?
Marked response: 107

Exam item: Notebook: pull reported binding response (% of control) for Mitogen-activated protein kinase kinase kinase 3 (Homo sapiens) (UniProt Q99759), entry `Cc1cn(COC/C=C/c2ccccc2)c(=O)[nH]c1=O`
Marked response: 105

Exam item: Give binding response (% of control) (Mitogen-activated protein kinase kinase kinase 3 (Homo sapiens) (UniProt Q99759)) of the following compound: `O=C(CSc1ccc(-c2ccc(F)cc2)nn1)Nc1ccc2c(c1)OCCO2`
Marked response: 104

Exam item: Hi! What's the reported binding response (% of control) for `O=C1Nc2ccc(Br)cc2/C1=N/N=C/C1=C(N2CCOCC2)C(=C\c2ccccc2)/CC1` on Mitogen-activated protein kinase kinase kinase 3 (Homo sapiens) (UniProt Q99759)?
Marked response: 54

Exam item: Which binding response (% of control) is reported with Mitogen-activated protein kinase kinase kinase 3 (Homo sapiens) (UniProt Q99759) for this entry: `CCOC(=O)c1c(-c2ccccc2)csc1NC(=S)NC(=O)c1ccccc1` ?
Marked response: 102

Exam item: Observed binding response (% of control) on Mitogen-activated protein kinase kinase kinase 3 (Homo sapiens) (UniProt Q99759) for `Cc1ccccc1-c1ccc(Nc2ccc(C(=O)N3CCOCC3)cc2)nn1` , please.
Marked response: 102

Exam item: For Mitogen-activated protein kinase kinase kinase 3 (Homo sapiens) (UniProt Q99759), provide binding response (% of control) of `COc1ccc(CCn2c(NN=C3CCCC3)nc3c2c(=O)[nH]c(=O)n3C)cc1` please.
Marked response: 106

Exam item: GET /values?readout=binding response (% of control)&system=Mitogen-activated protein kinase kinase kinase 3 (Homo sapiens) (UniProt Q99759)&item= `COC(=O)c1c(NC(=O)COC(=O)[C@@H](NS(=O)(=O)c2ccccc2)C(C)C)sc2c1CCC2`
Marked response: 102

Exam item: Kindly state the measured binding response (% of control) obtained for `CN(C)CCCNC(=O)c1cc(C(=O)Cc2ccc(Cl)cc2)c[nH]1` with Mitogen-activated protein kinase kinase kinase 3 (Homo sapiens) (UniProt Q99759).
Marked response: 98

Exam item: Observed binding response (% of control) on Mitogen-activated protein kinase kinase kinase 3 (Homo sapiens) (UniProt Q99759) for CC1(C)OC(=O)N2CCc3ccccc3C21C (stereo not drawn) , please.
Marked response: 104

Exam item: So what binding response (% of control) did `FC(F)(F)c1cccc(N/N=C/c2ccccc2)c1` get with Mitogen-activated protein kinase kinase kinase 3 (Homo sapiens) (UniProt Q99759)?
Marked response: 105

Exam item: Which binding response (% of control) is reported with Mitogen-activated protein kinase kinase kinase 3 (Homo sapiens) (UniProt Q99759) for this entry: `CCOc1ccc(NC(=O)Nc2cc(C)ccc2OC)cc1` ?
Marked response: 100

Exam item: Record lookup: for Mitogen-activated protein kinase kinase kinase 3 (Homo sapiens) (UniProt Q99759), what binding response (% of control) belongs to `C=CCn1c(=S)sc2c(=O)[nH]c(C)nc21` ?
Marked response: 107

Exam item: Return binding response (% of control) measured with Mitogen-activated protein kinase kinase kinase 3 (Homo sapiens) (UniProt Q99759) given this compound: `N/C(=N\OS(=O)(=O)c1cccc([N+](=O)[O-])c1)c1ccncc1`
Marked response: 104

Exam item: Identify the measured binding response (% of control) of `CCOC(=O)N1CCN(CC(=O)n2c(C)c(C)c3ccccc32)CC1` for Mitogen-activated protein kinase kinase kinase 3 (Homo sapiens) (UniProt Q99759).
Marked response: 97

Exam item: Write down the reported binding response (% of control) of `COc1cccc(NC(=S)NCc2ccccn2)c1` , test system: Mitogen-activated protein kinase kinase kinase 3 (Homo sapiens) (UniProt Q99759).
Marked response: 96

Exam item: Any idea what binding response (% of control) came out for CC(C)C(=O)N1c2ccccc2NC2=C(C(=O)CCC2)C1c1ccc(N(C)C)cc1 (stereo not drawn) on Mitogen-activated protein kinase kinase kinase 3 (Homo sapiens) (UniProt Q99759)?
Marked response: 106

Exam item: What binding response (% of control) appears in the records for this compound with Mitogen-activated protein kinase kinase kinase 3 (Homo sapiens) (UniProt Q99759)? `COc1cccc(OCC(=O)NNC(=O)c2cnccn2)c1`
Marked response: 101

Exam item: Query the reported binding response (% of control) for Mitogen-activated protein kinase kinase kinase 3 (Homo sapiens) (UniProt Q99759); item: `CCn1c(NC(=O)c2ccccc2)c(-c2cccs2)c(=O)c2ccccc21`
Marked response: 101

Exam item: Notebook entry, Mitogen-activated protein kinase kinase kinase 3 (Homo sapiens) (UniProt Q99759) assay: binding response (% of control) of `COc1ccc(CNC(=O)C2CCN(S(C)(=O)=O)CC2)cc1` = ?
Marked response: 102

---

biological target: Mitogen-activated protein kinase kinase kinase 3 (Homo sapiens) (UniProt Q99759); assay: blockers of MEK5-MEKK3 PB1 association – biochemical, bead multiplex flow cytometry, single concentration, wildtype, confirmation (AID 1894); conditions: Alexa488-MEK5 binding to MEKK3, at 10 µM, active compounds read low;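 further: 100% = DMSO only wells and 0% = binding blocked by excess unlabeled MEK5; lower values mean stronger disruption of MEK5 binding to MEKK3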
Out of some 5,900 compounds screened, about 100 (1.7%) were called active. Many of the other results were omitted from the sample, so actives are more common in it than they were.
Can you tell me binding response (% of control) for the items I'm about to list?
Give the value in % but do not write % after it.

Exam item: What measured binding response (% of control) goes with `Cc1[nH]c2ccc(S(N)(=O)=O)cc2c1C` ?
Marked response: 100

Exam item: Quick one: binding response (% of control) of COc1ccccc1OCCNCC(O)COc1cccc2[nH]c3ccccc3c12 (configuration not stated) ?
Marked response: 100

Exam item: Bench note: what binding response (% of control) did `C/C(=N\NC(=O)CNC(=O)C(c1ccccc1)c1ccccc1)c1ccc(C)cc1` show?
Marked response: 108

Exam item: // lookup binding response (% of control) for `Cc1cccn2c(=O)c(/C=C3\SC(=S)N(CC(C)C)C3=O)c(NCCCOC(C)C)nc12`
Marked response: 86

Exam item: # lookup: binding response (% of control) of `Cc1ccccc1CCN(CC(=O)NC1CCCCC1)C(=O)c1csnn1`
Marked response: 97

Exam item: Query: binding response (% of control); subject: `O=C(Nc1ccc(Cl)cn1)c1cnn2cccnc12`
Marked response: 105

Exam item: // lookup binding response (% of control) for COc1cc(C)nc(N2CCCC(C(=O)NCC(C)C)C2)n1 (configuration not stated)
Marked response: 96

Exam item: Sample C=CCN1C=C2C(=O)C(C)(OC(=O)CCc3ccccc3)C(=O)C=C2C=C1c1ccc(C#N)cc1 (configuration not stated) — what was its binding response (% of control)?
Marked response: 103

Exam item: Fill in the blank: the reported binding response (% of control) of `Cc1noc(C)c1S(=O)(=O)N(C)Cc1ccccc1` is ____.
Marked response: 103

Exam item: Name the recorded binding response (% of control) for `CCCCn1c(SCC(=O)NCCc2ccc(OC)c(OC)c2)nc2c1c(=O)n(C)c(=O)n2C` .
Marked response: 100

Exam item: # lookup: binding response (% of control) of `O=C(O)c1cc(Cl)c(Cl)cc1C(=O)Nc1cccc2ncccc12`
Marked response: 102

Exam item: Item under review: `O=C(c1cnn(-c2ccc(Cl)cc2)c1)c1ccccc1O` . Reported binding response (% of control)?
Marked response: 110

Exam item: What binding response (% of control) value was documented for this compound, `CCN(CC)CCCNC(=O)c1ccc2c(=O)n(Cc3ccc4c(c3)OCO4)c(=S)[nH]c2c1` ?
Marked response: 101

Exam item: Would you kindly share the measured binding response (% of control) for COC(=O)C1=NN(c2ccccc2)C2C(=O)N(c3ccccc3OC)C(=O)C12 (configuration not stated) ?
Marked response: 103

Exam item: GET /values?readout=binding response (% of control)&item= `CCOc1nnc(C)c2c(C)n(-c3cccc(Cl)c3)nc12`
Marked response: 91

Exam item: For the compound `COC(=O)c1cc(NC(=O)c2cc(C(C)(C)C)nn2Cc2cccc(C)c2)ccc1N1CCOCC1` , what binding response (% of control) is on record?
Marked response: 99

Exam item: Name the reported binding response (% of control) value associated with the compound `CCCN(CCC)c1nc2c(C)cccn2c(=O)c1/C=C1/SC(=S)N(Cc2ccco2)C1=O`
Marked response: 86

Exam item: I'd like to know its binding response (% of control). The compound in question is `O=C(CCCO)N/N=C/c1cc(Br)ccc1O`
Marked response: 102

Exam item: # binding response (% of control) lookup, item `COc1ccc(-c2[nH]ncc2CN(C)Cc2c(C)n[nH]c2C)c(OC)c1`
Marked response: 109

Exam item: Look up binding response (% of control): `CC(C)(C)NC(=O)c1cccc(NC(=O)Cc2ccc(Br)cc2)c1`
Marked response: 101

Exam item: What value of measured binding response (% of control) is listed for `Cc1onc(-c2ccccc2Cl)c1C(=O)OCC(=O)c1ccccc1` ?
Marked response: 100

Exam item: Need binding response (% of control) of `Cc1ccc(N(CCC(=O)O)S(=O)(=O)c2cccc(C(F)(F)F)c2)cc1` , thanks.
Marked response: 102
